- EXPERIMENT NOTES: Hydrolysis kinetics in buffers at room temperature by 19F-NMR, 1 mg/ml (Method 9)
- Format: physicochemical
- EXPERIMENTAL SETUP: Citrate 10 mM pH 5.0
# label = y if Hydrolysis at 1 mg/ml at room Temperature (NMR) T50 (50% degradation time) >= 0.9 h else n

Answered cases to consult:
**Query** Form field: Hydrolysis at 1 mg/ml at room Temperature (NMR) T50 (50% degradation time) at least 0.9 h? Entry: COCCCC(C)(C)OC(=O)C(F)(F)ON1C(=O)N2C[C@H]1CC[C@H]2C(N)=O
**Result** n

**Query** Form field: Hydrolysis at 1 mg/ml at room Temperature (NMR) T50 (50% degradation time) at least 0.9 h? Entry: NC(=O)[C@@H]1CC[C@@H]2CN1C(=O)N2OC(F)(F)C(=O)OC1CCOCC1
**Result** y

**Query** Form field: Hydrolysis at 1 mg/ml at room Temperature (NMR) T50 (50% degradation time) at least 0.9 h? Entry: COCCOCC(C)(C)OC(=O)C(F)(F)ON1C(=O)N2C[C@H]1CC[C@H]2C(N)=O
**Result** y

Next:
**Query** Form field: Hydrolysis at 1 mg/ml at room Temperature (NMR) T50 (50% degradation time) at least 0.9 h? Entry: CCOC(=O)C(F)(F)ON1C(=O)N2C[C@H]1CC[C@H]2C(N)=O
**Result** y

**Query** Form field: Hydrolysis at 1 mg/ml at room Temperature (NMR) T50 (50% degradation time) at least 0.9 h? Entry: COCC(C)(COC)OC(=O)C(F)(F)ON1C(=O)N2C[C@H]1CC[C@H]2C(N)=O
**Result** y

**Query** Form field: Hydrolysis at 1 mg/ml at room Temperature (NMR) T50 (50% degradation time) at least 0.9 h? Entry: COCC(C)(C)OC(=O)C(F)(F)ON1C(=O)N2C[C@H]1CC[C@H]2C(N)=O
**Result** y

**Query** Form field: Hydrolysis at 1 mg/ml at room Temperature (NMR) T50 (50% degradation time) at least 0.9 h? Entry: COCC1(OC(=O)C(F)(F)ON2C(=O)N3C[C@H]2CC[C@H]3C(N)=O)CCOCC1
**Result** y

**Query** Form field: Hydrolysis at 1 mg/ml at room Temperature (NMR) T50 (50% degradation time) at least 0.9 h? Entry: CC1(OC(=O)C(F)(F)ON2C(=O)N3C[C@H]2CC[C@H]3C(N)=O)CCOCC1
**Result** y

**Query** Form field: Hydrolysis at 1 mg/ml at room Temperature (NMR) T50 (50% degradation time) at least 0.9 h? Entry: CCCN(CCC)[C@H]1CC[C@H](OC(=O)C(F)(F)ON2C(=O)N3C[C@H]2CC[C@H]3C(N)=O)CC1
**Result** n

**Query** Form field: Hydrolysis at 1 mg/ml at room Temperature (NMR) T50 (50% degradation time) at least 0.9 h? Entry: COCC(COC)OC(=O)C(F)(F)ON1C(=O)N2C[C@H]1CC[C@H]2C(N)=O
**Result** y
